# Test system: MDA-MB-468 spheroids with HUVEC/MSC, viability
# EXPERIMENT_SUMMARY: Anticancer human tumor MDA-MB-468 cell line growth inhibition [PI3K];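 also: spheroids exposed to agents for seven days before readout; 100% = DMSO vehicle control viability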
# CONDITIONS: second compound 10 µM; first compound 0.0316 µM; hits give low values
The entries below are paired with their reported viability, T/C.
VALUE_KIND: viability, T/C (%)

molecule="CC(=O)c1c(C)c2cnc(Nc3ccc(N4CCNCC4)cn3)nc2n(C2CCCC2)c1=O + CC(Nc1ncnc2nc[nH]c12)c1cc2cccc(Cl)c2c(=O)n1-c1ccccc1" measured_target="MDA-MB-468 spheroids with HUVEC/MSC, viability" value_kind="viability, T/C" unit_of_measurement=% val=45.7
molecule="CCCS(=O)(=O)Nc1ccc(F)c(C(=O)c2c[nH]c3ncc(-c4ccc(Cl)cc4)cc23)c1F + Cc1nc(NC(=O)N2CCCC2C(N)=O)sc1-c1ccnc(C(C)(C)C(F)(F)F)c1" measured_target="MDA-MB-468 spheroids with HUVEC/MSC, viability" value_kind="viability, T/C" unit_of_measurement=% val=43
molecule="CC1(C)CCC(Nc2ncc(C(F)(F)F)c(-c3c[nH]c4c(P(C)(C)=O)c(C#N)ccc34)n2)CN1 (stereo not drawn) + Cc1nc(NC(=O)N2CCCC2C(N)=O)sc1-c1ccnc(C(C)(C)C(F)(F)F)c1" measured_target="MDA-MB-468 spheroids with HUVEC/MSC, viability" value_kind="viability, T/C" unit_of_measurement=% val=11
